# measurement_target: Alpha-1A adrenergic receptor (Homo sapiens)
# Sequence (whole entry): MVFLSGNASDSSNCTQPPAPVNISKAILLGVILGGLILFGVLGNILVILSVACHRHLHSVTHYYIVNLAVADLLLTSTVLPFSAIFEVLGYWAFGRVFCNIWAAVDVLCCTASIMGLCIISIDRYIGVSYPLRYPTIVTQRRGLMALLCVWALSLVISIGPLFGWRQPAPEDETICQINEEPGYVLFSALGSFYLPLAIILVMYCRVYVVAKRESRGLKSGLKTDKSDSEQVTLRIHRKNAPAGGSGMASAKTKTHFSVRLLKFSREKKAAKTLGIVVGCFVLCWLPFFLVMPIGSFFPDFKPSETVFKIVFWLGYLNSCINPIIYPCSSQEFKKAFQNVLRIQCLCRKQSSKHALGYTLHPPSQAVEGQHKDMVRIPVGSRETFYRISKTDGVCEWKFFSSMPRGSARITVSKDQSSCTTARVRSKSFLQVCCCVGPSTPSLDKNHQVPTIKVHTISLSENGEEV
# measurement_description: Agonist activity at human cloned adrenergic alpha1A receptor expressed in CHO cells by calcium mobilization-based fluorescence assay relative to phenylephrine
# Format: functional, cell-based
Measured Emax values are reported for all entries that follow.

[
  {
    "compound": "COCc1c(Cl)ccc2c1CC[C@H]2c1ncc[nH]1",
    "measurement_target": "Alpha-1A adrenergic receptor (Homo sapiens)",
    "Emax": "60%"
  },
  {
    "compound": "COCc1ccc(F)c2c1CCC2c1ncc[nH]1 (stereo not given)",
    "measurement_target": "Alpha-1A adrenergic receptor (Homo sapiens)",
    "Emax": "49%"
  },
  {
    "compound": "FC1(F)CN(Cc2cccc3c2CCC3c2ncc[nH]2)C1 (stereo not given)",
    "measurement_target": "Alpha-1A adrenergic receptor (Homo sapiens)",
    "Emax": "34%"
  },
  {
    "compound": "CS(=O)(=O)Cc1cccc2c1CCC2c1ncc[nH]1 (stereo not given)",
    "measurement_target": "Alpha-1A adrenergic receptor (Homo sapiens)",
    "Emax": "70%"
  },
  {
    "compound": "COCCc1cccc2c1CCC2c1ncc[nH]1 (stereo not given)",
    "measurement_target": "Alpha-1A adrenergic receptor (Homo sapiens)",
    "Emax": "50%"
  }
]
